tested on: MCF-7/6 mammary carcinoma cells; assay: chick heart invasion assay; type: cell-based, human; set-up: unit not given here; settings: validation set, in vitro
Measurement label: anti-invasive activity class act.

For orientation, consider the following solved cases.
## Task Field: anti-invasive activity class act. (MCF-7/6 mammary carcinoma cells). Entry: O=C(/C=C/c1ccc(F)cc1)c1ccc(O)cc1
## Result 1 (about 10)

## Task GET /values?readout=anti-invasive activity class act.&system=MCF-7/6 mammary carcinoma cells&item= CC1(C)CCc2c(O)c(C(=O)/C=C/c3cccc([N+](=O)[O-])c3)c3c(c2O1)CCC(C)(C)O3
## Result ≧3 (>100)

## Task Provide the documented anti-invasive activity class act. with MCF-7/6 mammary carcinoma cells as the system for COc1ccc(C(=O)/C=C/c2ccc(Cl)cc2)cc1
## Result −2 (about 0.01)

## Task MCF-7/6 mammary carcinoma cells / anti-invasive activity class act. / O=C(/C=C/c1ccoc1)c1ccc(F)cc1 : value?
## Result −1 (about 0.1)

Next:
## Task Give anti-invasive activity class act. (MCF-7/6 mammary carcinoma cells) of the following molecule: COc1ccc(C(=O)/C=C/c2cc3ccccc3o2)cc1
## Result 2 (about 100)

## Task Request - read-out anti-invasive activity class act. | tested on MCF-7/6 mammary carcinoma cells | molecule COc1cccc(OC)c1C(=O)/C=C/c1ccco1
## Result −1 (about 0.1)

## Task Hi! What's the reported anti-invasive activity class act. for COc1ccc(C(=O)C=Cc2ccco2)cc1 on MCF-7/6 mammary carcinoma cells?
## Result 2 (about 100)

## Task Give the reported anti-invasive activity class act. for O=C(/C=C/c1ccco1)c1ccc(F)cc1 (system: MCF-7/6 mammary carcinoma cells).
## Result 2 (about 100)

## Task anti-invasive activity class act. of COc1cc(C(=O)/C=C/c2ccco2)cc(OC)c1OC on MCF-7/6 mammary carcinoma cells?
## Result −1 (about 0.1)

## Task Request - read-out anti-invasive activity class act. | tested on MCF-7/6 mammary carcinoma cells | molecule COc1cc(O)c(C(=O)/C=C/c2cccc([N+](=O)[O-])c2)cc1C(c1ccccc1)c1ccccc1
## Result ≧3 (>100)

## Task Lab request: please report anti-invasive activity class act. under test system MCF-7/6 mammary carcinoma cells for CC(C)=CCOc1ccc(C(=O)/C=C/c2ccc(F)cc2)cc1
## Result >=2 (about 100)
